Below, each entry is listed with its recorded self-aminoacylation.
test system: biotinyl-Met-oxazolone; test: self-aminoacylation, catalytic enhancement (BMO) (fold over background); higher = more active; k-Seq, kA / k0A0; sequences stand for … in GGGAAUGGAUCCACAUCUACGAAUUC…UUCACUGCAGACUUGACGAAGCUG
Fewer inactive variants are shown than the library holds.
testReadout: self-aminoacylation

INSERT INTO assay_data (chainsequence, targetortestsystem, testreadout, resultnumber) VALUES
  ('AUGCACUUAGGUCAUCGGGUG [Fam2.2 aminoacylation ribozyme variant]', 'biotinyl-Met-oxazolone', 'self-aminoacylation', 8.73),
  ('AUUACACUGGUCACCGAGUGA [Fam2.1 aminoacylation ribozyme variant]', 'biotinyl-Met-oxazolone', 'self-aminoacylation', 5.29),
  ('AAUACCAUGGUCAUCGAGUGA [Fam2.1 aminoacylation ribozyme variant]', 'biotinyl-Met-oxazolone', 'self-aminoacylation', 6.12),
  ('AGUCACCUAGGUCAUCGGGUA [Fam2.2 aminoacylation ribozyme variant]', 'biotinyl-Met-oxazolone', 'self-aminoacylation', 11.6),
  ('AUUCACCUAGGUCUUCGGCUG [Fam2.2 aminoacylation ribozyme variant]', 'biotinyl-Met-oxazolone', 'self-aminoacylation', 1.8);
